Form: system (Corticosteroid-binding globulin (Homo sapiens) (UniProt P08185)), quantity (Log K), values below.
Reply briefly: the number, and no unit.

C[C@]12C[C@H](O)[C@H]3[C@@H](CCC4=CC(=O)CC[C@@]43C)[C@@H]1CC[C@@H]2C(=O)CO: 7.88

Data request, read-out Log K, for CC(=O)[C@H]1CC[C@H]2[C@@H]3CC=C4C[C@@H](O)CC[C@]4(C)[C@H]3CC[C@]12C
5.25

Please report the recorded Log K for C[C@]12C=CC(=O)C=C1CCC1[C@@H]2[C@@H](O)C[C@@]2(C)[C@H]1CC[C@]2(O)C(=O)CO (single isomer, unassigned) .
7.51

# lookup: Log K of C[C@]12CCC(=O)C=C1CC[C@@H]1[C@@H]2[C@@H](O)C[C@]2(C=O)[C@@H](C(=O)CO)CC[C@@H]12
6.28

So what does the record say about Log K for C[C@]12CCC(=O)C=C1CC[C@@H]1[C@@H]2CC[C@@]2(C)[C@H]1CC[C@]2(O)C(=O)CO ?
7.88

Bench note: what Log K did CC(=O)OCC(=O)[C@@]1(O)CC[C@H]2C3CCC4=CC(=O)CC[C@]4(C)[C@H]3[C@@H](O)C[C@@]21C (single isomer, unassigned) show?
7.55

Form field: reported Log K of C[C@]12CCC(=O)C=C1CCC1[C@@H]2C(=O)C[C@@]2(C)[C@H]1CC[C@]2(O)C(=O)CO (single isomer, unassigned)
6.89
